Catalogue of pAMPK/AMPK (%) values
# targetUnderTest: AdipoR1 (Mus musculus)
# Construct: C2C12 cells (ATCC; CRL-1772, medium; host or cells: differentiated C2C12
# Sequence (Q91VH1 whole entry): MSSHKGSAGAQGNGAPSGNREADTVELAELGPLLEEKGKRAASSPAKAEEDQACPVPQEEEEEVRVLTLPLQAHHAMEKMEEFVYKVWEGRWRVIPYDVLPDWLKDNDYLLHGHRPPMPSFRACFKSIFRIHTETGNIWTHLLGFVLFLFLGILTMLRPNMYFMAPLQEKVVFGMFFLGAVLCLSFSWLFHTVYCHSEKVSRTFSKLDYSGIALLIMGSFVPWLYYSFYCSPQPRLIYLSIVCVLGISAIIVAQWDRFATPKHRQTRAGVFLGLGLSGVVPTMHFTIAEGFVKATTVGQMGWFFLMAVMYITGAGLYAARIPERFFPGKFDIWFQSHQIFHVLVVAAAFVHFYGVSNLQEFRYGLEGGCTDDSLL
# protocolSummary: Measurement of AMPK phosphorylation ability (Assay 1), differentiated C2C12 cells, Western blotting
# Type: cell-based
# measurementSetup: 10 μM, 10 minutes
Respond numerically; units are % and should not be typed.

Below, 2 molecules whose answers are already recorded.
In [3]: df
Out[3]:
                                smilesinput         targetundertest  experimentalendpoint  experimentalresult
0  O=C(NCC[C@@H]1C[C@@H]2C=C[C@H]1C2)c1ccc(OC2CCN(Cc3ccccn3)CC2)cc1  AdipoR1 (Mus musculus)        pAMPK/AMPK (%)               81.90
1  COCCNC(=O)c1ccc(OC2CCN(Cc3ccc(C)s3)CC2)c(Cl)c1  AdipoR1 (Mus musculus)        pAMPK/AMPK (%)               85.37

Exercise: # returns recorded pAMPK/AMPK (%) (system: AdipoR1 (Mus musculus)) for COCCNC(=O)c1ccc(OC2CCN(Cc3ccc(OC)cc3F)CC2)c(Cl)c1
Key: 89.63

Exercise: # returns recorded pAMPK/AMPK (%) (system: AdipoR1 (Mus musculus)) for COc1ccc(CN2CCN(C(=O)CCNC(=O)c3ccc(C(C)(C)C)cc3)CC2)cc1
Key: 86.43

Exercise: # returns recorded pAMPK/AMPK (%) (system: AdipoR1 (Mus musculus)) for COCCNC(=O)c1ccc(OC2CCN(Cc3cccc4nonc34)CC2)c(Cl)c1
Key: 81.88

Exercise: # returns recorded pAMPK/AMPK (%) (system: AdipoR1 (Mus musculus)) for O=C(NC1CCN(Cc2ccccc2)CC1)c1ccc(Cl)c(Cl)c1
Key: 80.04

Exercise: # returns recorded pAMPK/AMPK (%) (system: AdipoR1 (Mus musculus)) for Cc1cccc(CN2CCC(Oc3ccc(C(=O)NC4CCCC4)cc3Cl)CC2)n1
Key: 90.14

Exercise: # returns recorded pAMPK/AMPK (%) (system: AdipoR1 (Mus musculus)) for CC(C)N(Cc1cnn(C)c1)C(=O)c1ccc(OC2CCN(Cc3ccccn3)CC2)cc1
Key: 90.15
